Where these numbers come from: the supplement of paper PMC11908140

B1: library; numbered along this chain (parent)
chain: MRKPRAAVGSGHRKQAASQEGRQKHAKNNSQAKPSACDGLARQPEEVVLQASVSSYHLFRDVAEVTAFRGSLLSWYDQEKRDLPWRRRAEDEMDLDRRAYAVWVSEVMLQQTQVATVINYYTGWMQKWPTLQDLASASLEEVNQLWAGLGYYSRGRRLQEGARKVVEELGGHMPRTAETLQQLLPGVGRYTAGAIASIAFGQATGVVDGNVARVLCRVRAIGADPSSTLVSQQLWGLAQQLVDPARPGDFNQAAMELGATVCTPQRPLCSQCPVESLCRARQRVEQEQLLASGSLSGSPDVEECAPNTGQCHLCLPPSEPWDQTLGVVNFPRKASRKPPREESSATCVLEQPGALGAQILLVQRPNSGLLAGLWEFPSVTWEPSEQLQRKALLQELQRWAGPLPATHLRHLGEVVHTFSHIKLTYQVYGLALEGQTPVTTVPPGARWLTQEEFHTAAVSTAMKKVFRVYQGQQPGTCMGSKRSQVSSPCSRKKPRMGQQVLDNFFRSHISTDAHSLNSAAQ

Variants of: B1
MEASUREMENT DESCRIPTION: 8OG:A repair function score (normalized; synonymous = 0, nonsense = -1) (normalized log-likelihood score); higher = more repair activity (WT-like);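 note: cells sorted at 72 h after reporter transfection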
CONDITION DETAILS: with 8OG:A DNA repair reporter (GFP) in HEK-293 MUTYH KO cells
Could you label it YES if measured 8OG:A repair function score is -0.1 or higher, and NO otherwise?

1) A400W : NO
2) W85N : NO
3) R156G : NO
4) T179W : YES
5) S335A : YES
6) S270E : YES
7) E285H : YES
8) E275K : YES
9) Q450F : YES
10) F418G : NO
11) A405F : YES
12) K333M : YES
13) V206D : NO
14) L149C : NO
15) A192F : NO
16) P129E : YES
17) D208R : NO
18) L360M : NO
19) G186P : NO
20) S55M : YES
21) L72Y : NO
22) W103G : NO
23) G309I : NO
24) H416C : NO
25) Q358W : NO
26) Q388P : YES
27) Q473S : YES
28) E140T : NO
29) H508V : YES
30) S298E : YES
31) Q282L : YES
32) L370S : NO
33) A67L : YES
34) L423N : YES
35) S153A : YES
36) Q323M : YES
37) S490W : YES
38) P338I : YES
39) V379P : NO
40) S55L : NO
41) Q351G : NO
42) M462R : NO
43) A391M : NO
44) V348P : NO
45) A354M : NO
46) K164H : NO
47) R482H : YES
48) L315E : NO
